Taken from PubChem BioAssay.

test system: Noggin (protein binding on small-molecule microarray); experiment: small molecules binding Noggin protein – biochemical, 635/667 nm fluorescence, primary screen (AID 1095); conditions: 635 nm fluorescence, higher = more signal;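 note: score merges 667 nm feature fluorescence with signal to noise over triplicate slides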
Assignment: determine reported composite z-score for the given compounds.
Give bare numbers.

CN(C)CCCC[C@@H]1NC(=O)[C@H]2C[C@@H](C(=O)NCCCCCCNC(=O)CS)[C@@H](c3ccc(O)cc3)N2C1=O :: 1.58
CCCC[C@@H](O)C1=C(COc2ccccc2)Cn2c(=O)n(-c3ccccc3)c(=O)n2[C@H]1CO :: -0.376

Please examine the following record next.
[ask] Recall and state the measured composite z-score for `NC(=O)NCC#Cc1ccc2c(c1)[C@]1(C(=O)N2)[C@H](c2ccc(OCCO)cc2)N2[C@H](c3ccccc3)[C@H](c3ccccc3)OC(=O)[C@H]2[C@@H]1C(=O)N1CCN(c2ncccn2)CC1` .
[reply] 1.63

====

test: S6 kinase pathway phospho-S6 level changes – cell-based, A549, cytoblot, luminescence, serum-stimulated, primary screen (AID 1158); details: 5 h, higher = more signal;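 note: serum-stimulated A549 lung adenocarcinoma cells; signal is phosphorylated S6 detected by cytoblot immunostaining with HRP secondary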
Assignment: determine reported z-score for the given compounds.
Give bare numbers.

Cc1cc(C)c(C(O)C2C=CC3C(=O)N(c4ccccc4)C(=O)C3N2Nc2ccccc2)c(C)c1 (stereo not drawn) :: -0.824
COC(=O)[C@@]1(Cc2ccccc2)[C@H]2c3cc(C(=O)N4CCCC4)n(Cc4ccc(OC(F)(F)F)cc4)c3C[C@H]2CN1C(=O)c1ccccc1 :: -0.366

For every item below, please supply its z-score.
1. COC(=O)c1ccc(OC)c(/C=C\CC(CCc2ccccc2)OC(=O)c2ccncc2)c1 (stereo not drawn)
2. COc1ccc(C(=O)Nc2ccc(CN3C(=O)[C@@]4(O[C@@H](CC(=O)N5Cc6ccccc6C[C@H]5CO)[C@H]([Si](C)(C)c5ccc(OC)cc5)[C@H]4C)c4ccccc43)cc2)cc1
3. CCCC=C(CCC)[C@@H](NS(=O)(=O)CC)c1ccccc1
4. C=CCC(OC(C)=O)[C@@H]1[C@@H](N(Cc2ccc(-c3ccccc3)cc2)C(=O)Cc2ccc(OC)cc2)c2cc(OCCCO)ccc2N1C(=O)c1ccc(-c2ccccc2)cc1 (stereo partly drawn)
5. C#CCNS(=O)(=O)N(C)C

[reply]
[-0.224, 0.0933, -0.259, 1, 0.32]

[ask] Recall and state the measured z-score for `COC(=O)[C@@]1(Cc2ccc(OC)cc2)[C@H]2c3cc(C(=O)N4CCCC4)n(CCF)c3C[C@H]2CN1C(=O)c1ccccc1` .
[reply] 0.181

====

molecular target: Luciferin 4-monooxygenase (Photinus pyralis); experiment: inhibition of purified Photinus pyralis luciferase – biochemical, luminescence, purified enzyme, 2006 set, primary screen (AID 1141); conditions: purified firefly luciferase, SteadyGlo luminescence, 30 min; higher = more signal, called active from +8 up or from −8 down;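 note: cell-free assay with purified firefly luciferase at 100 ng per well in PBS; test concentration not given here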
# z-score >= -0.2 gives 1 (yes), anything below gives 0 (no)

[N-]=[N+]=NCc1ccccc1[C@H]1OC(c2ccc(OCCCO)cc2)=N[C@@]1(Cc1ccccc1N=[N+]=[N-])C(=O)N1CCCCC1 :: 0 (no)
C=C(/C(=C/C[C@@H](OC(=O)c1ccncc1)c1ccccc1OCCO)c1cnc2ccccc2c1)C(C)C :: 0 (no)
CN(C)CCCNC(=O)[C@@]1(Cc2ccccc2I)c2ccccc2C(=O)N(Cc2ccccc2Cl)[C@H]1c1ccc(CO)cc1 :: 1 (yes)
COC(=O)[C@]1(Cc2ccccc2CN=[N+]=[N-])N=C(c2ccc(OCCCO)cc2)O[C@@H]1c1ccccc1 :: 0 (no)
CCCC=C(CCC)[C@@H](NS(=O)(=O)c1cccc2cccnc12)c1ccc(C(=O)OC)cc1 :: 1 (yes)

[ask] Exam item: decide whether the reported z-score for `COCC1=C([C@H](O)CCc2ccccc2)[C@H](CO)[C@@H]2C(=O)N(C)C(=O)[C@@H]2C1` is at least -0.2.
[reply] 0 (no)

[ask] Exam item: decide whether the reported z-score for CC(C)C(CO)N1C(=O)[C@@H]2[C@H]3C(=O)OCC=C[C@H]3OC23C=CCN(CCN2CCOCC2)C(=O)[C@@H]13 (stereo partly drawn) is at least -0.2.
[reply] 0 (no)

[ask] Exam item: decide whether the reported z-score for CC1C=C(CCCO)C=C(C(=O)OCCS(C)(=O)=O)C(C(=O)OCCS(C)(=O)=O)=CN1Cc1cccc(OC(F)(F)F)c1 (stereo not drawn) is at least -0.2.
[reply] 0 (no)
